For each record, write down the corresponding Kd.
MEASURED ON: Nucleic Acid
METHOD NOTES: Dissociation constant of conjugate DNA complexes in 0.05 HEPES buffer of pH 7.3, at room temperature
Format: nucleic-acid assay
API: value field is a number in nM; no unit string.

### Prompt I have this molecule here, "CCCCC(=O)NCCCCCCOP(=O)(NCCCC(=O)Nc1cc(C(=O)Nc2cc(C(=O)Nc3cc(C(=O)NCCCC(=O)Nc4cc(C(=O)Nc5cc(C(=O)Nc6cc(C(=O)NCCCN(C)C)n(C)c6)n(C)c5)n(C)c4)n(C)c3)n(C)c2)n(C)c1)NCCCC(=O)Nc1cc(C(=O)Nc2cc(C(=O)Nc3cc(C(=O)NCCCC(=O)Nc4cc(C(=O)Nc5cc(C(=O)Nc6cc(C(=O)NCCCN(C)C)n(C)c6)n(C)c5)n(C)c4)n(C)c3)n(C)c2)n(C)c1" , and I need its recorded Kd.
### Response 18

### Prompt Query "CN(C)CCCNC(=O)c1cc(NC(=O)c2cc(NC(=O)c3cc(NC(=O)CCCNC(=O)c4cc(NC(=O)c5cc(NC(=O)c6cc(NC(=O)CCCNP(=O)(CCCCN7C(=O)c8ccccc8C7=O)NCCCC(=O)Nc7cc(C(=O)Nc8cc(C(=O)Nc9cc(C(=O)NCCCC(=O)Nc%10cc(C(=O)Nc%11cc(C(=O)Nc%12cc(C(=O)NCCCN(C)C)n(C)c%12)n(C)c%11)n(C)c%10)n(C)c9)n(C)c8)n(C)c7)cn6C)cn5C)cn4C)cn3C)cn2C)cn1C" next
### Response 34

### Prompt Now consider "CCCCC(=O)NCCCN(CC(=O)NCCCC(=O)Nc1cc(C(=O)Nc2cc(C(=O)Nc3cc(C(=O)NCCCC(=O)Nc4cc(C(=O)Nc5cc(C(=O)Nc6cc(C(=O)NCCCN(C)C)n(C)c6)n(C)c5)n(C)c4)n(C)c3)n(C)c2)n(C)c1)CC(=O)NCCCC(=O)Nc1cc(C(=O)Nc2cc(C(=O)Nc3cc(C(=O)NCCCC(=O)Nc4cc(C(=O)Nc5cc(C(=O)Nc6cc(C(=O)NCCCN(C)C)n(C)c6)n(C)c5)n(C)c4)n(C)c3)n(C)c2)n(C)c1" .
### Response 4.8

### Prompt // repeat for "CCCCC(=O)N(CC(=O)NCCCC(=O)Nc1cc(C(=O)Nc2cc(C(=O)Nc3cc(C(=O)NCCCC(=O)Nc4cc(C(=O)Nc5cc(C(=O)Nc6cc(C(=O)NCCCN(C)C)n(C)c6)n(C)c5)n(C)c4)n(C)c3)n(C)c2)n(C)c1)CC(=O)NCCCC(=O)Nc1cc(C(=O)Nc2cc(C(=O)Nc3cc(C(=O)NCCCC(=O)Nc4cc(C(=O)Nc5cc(C(=O)Nc6cc(C(=O)NCCCN(C)C)n(C)c6)n(C)c5)n(C)c4)n(C)c3)n(C)c2)n(C)c1" and report
### Response 4.3
